assay: Stability test of crystal forms spread flat in the air under lighting, heating and high humidity (HPLC purity, XRPD); format: physicochemical; details: high humidity RH 90%, spread flat in the air, Day 5
Listed next: entries and their corresponding purity as detected by HPLC, RH 90%.
Record the value in %, omitting the unit from your answer.

CONC(=O)Nc1ccc(-n2nc3c(c2CN(C)C)c(=O)n(-c2ccc(OC)nn2)c(=O)n3Cc2c(F)cccc2F)cc1 [Crystal form I]
99.27
CONC(=O)Nc1ccc(-n2nc3c(c2CN(C)C)c(=O)n(-c2ccc(OC)nn2)c(=O)n3Cc2c(F)cccc2F)cc1 [Crystal form C]
99.54

# purity as detected by HPLC, RH 90% of CONC(=O)Nc1ccc(-n2nc3c(c2CN(C)C)c(=O)n(-c2ccc(OC)nn2)c(=O)n3Cc2c(F)cccc2F)cc1 [Crystal form D] = 99.57

# purity as detected by HPLC, RH 90% of CONC(=O)Nc1ccc(-n2nc3c(c2CN(C)C)c(=O)n(-c2ccc(OC)nn2)c(=O)n3Cc2c(F)cccc2F)cc1 [Crystal form A] = 97.59

# purity as detected by HPLC, RH 90% of CONC(=O)Nc1ccc(-n2nc3c(c2CN(C)C)c(=O)n(-c2ccc(OC)nn2)c(=O)n3Cc2c(F)cccc2F)cc1 [Crystal form B] = 99.47

###

assay: Stability test of crystal forms spread flat in the air under lighting, heating and high humidity (HPLC purity, XRPD); format: physicochemical; conditions: high humidity RH 90%, spread flat in the air, Day 10
Listed next: entries and their corresponding purity as detected by HPLC, RH 90%.
Record the value in %, omitting the unit from your answer.

Sample answers from the record:
CONC(=O)Nc1ccc(-n2nc3c(c2CN(C)C)c(=O)n(-c2ccc(OC)nn2)c(=O)n3Cc2c(F)cccc2F)cc1 [Crystal form D]
99.39
CONC(=O)Nc1ccc(-n2nc3c(c2CN(C)C)c(=O)n(-c2ccc(OC)nn2)c(=O)n3Cc2c(F)cccc2F)cc1 [Crystal form I]
99.27
CONC(=O)Nc1ccc(-n2nc3c(c2CN(C)C)c(=O)n(-c2ccc(OC)nn2)c(=O)n3Cc2c(F)cccc2F)cc1 [Crystal form B]
99.34
CONC(=O)Nc1ccc(-n2nc3c(c2CN(C)C)c(=O)n(-c2ccc(OC)nn2)c(=O)n3Cc2c(F)cccc2F)cc1 [Crystal form A]
97.79

# purity as detected by HPLC, RH 90% of CONC(=O)Nc1ccc(-n2nc3c(c2CN(C)C)c(=O)n(-c2ccc(OC)nn2)c(=O)n3Cc2c(F)cccc2F)cc1 [Crystal form C] = 99.38

###

experiment: Stability test of crystal forms spread flat in the air under lighting, heating and high humidity (HPLC purity, XRPD); type: physicochemical; conditions: high humidity RH 75%, spread flat in the air, Day 5
Listed next: entries and their corresponding purity as detected by HPLC, RH 75%.
Record the value in %, omitting the unit from your answer.

# purity as detected by HPLC, RH 75% of CONC(=O)Nc1ccc(-n2nc3c(c2CN(C)C)c(=O)n(-c2ccc(OC)nn2)c(=O)n3Cc2c(F)cccc2F)cc1 [Crystal form C] = 99.51

# purity as detected by HPLC, RH 75% of CONC(=O)Nc1ccc(-n2nc3c(c2CN(C)C)c(=O)n(-c2ccc(OC)nn2)c(=O)n3Cc2c(F)cccc2F)cc1 [Crystal form I] = 99.22

# purity as detected by HPLC, RH 75% of CONC(=O)Nc1ccc(-n2nc3c(c2CN(C)C)c(=O)n(-c2ccc(OC)nn2)c(=O)n3Cc2c(F)cccc2F)cc1 [Crystal form B] = 99.52

# purity as detected by HPLC, RH 75% of CONC(=O)Nc1ccc(-n2nc3c(c2CN(C)C)c(=O)n(-c2ccc(OC)nn2)c(=O)n3Cc2c(F)cccc2F)cc1 [Crystal form A] = 97.61

# purity as detected by HPLC, RH 75% of CONC(=O)Nc1ccc(-n2nc3c(c2CN(C)C)c(=O)n(-c2ccc(OC)nn2)c(=O)n3Cc2c(F)cccc2F)cc1 [Crystal form D] = 99.57

###

test: Stability test of crystal forms spread flat in the air under lighting, heating and high humidity (HPLC purity, XRPD); assay type: physicochemical; details: lighting (4500 Lux), spread flat in the air, Day 0
observed_property: purity as detected by HPLC, Lighting (%)
Record the value in %, omitting the unit from your answer.

Sample answers from the record:
CONC(=O)Nc1ccc(-n2nc3c(c2CN(C)C)c(=O)n(-c2ccc(OC)nn2)c(=O)n3Cc2c(F)cccc2F)cc1 [Crystal form I]
99.36
CONC(=O)Nc1ccc(-n2nc3c(c2CN(C)C)c(=O)n(-c2ccc(OC)nn2)c(=O)n3Cc2c(F)cccc2F)cc1 [Crystal form B]
99.69
CONC(=O)Nc1ccc(-n2nc3c(c2CN(C)C)c(=O)n(-c2ccc(OC)nn2)c(=O)n3Cc2c(F)cccc2F)cc1 [Crystal form A]
97.86
CONC(=O)Nc1ccc(-n2nc3c(c2CN(C)C)c(=O)n(-c2ccc(OC)nn2)c(=O)n3Cc2c(F)cccc2F)cc1 [Crystal form C]
99.75

Okay, now this compound:
# purity as detected by HPLC, Lighting of CONC(=O)Nc1ccc(-n2nc3c(c2CN(C)C)c(=O)n(-c2ccc(OC)nn2)c(=O)n3Cc2c(F)cccc2F)cc1 [Crystal form D] = 99.67

###

assay: Stability test of crystal forms spread flat in the air under lighting, heating and high humidity (HPLC purity, XRPD); assay type: physicochemical; details: heating 60° C., spread flat in the air, Day 0
observed_property: purity as detected by HPLC, 60° C. (%)
Record the value in %, omitting the unit from your answer.

CONC(=O)Nc1ccc(-n2nc3c(c2CN(C)C)c(=O)n(-c2ccc(OC)nn2)c(=O)n3Cc2c(F)cccc2F)cc1 [Crystal form A]
97.86
CONC(=O)Nc1ccc(-n2nc3c(c2CN(C)C)c(=O)n(-c2ccc(OC)nn2)c(=O)n3Cc2c(F)cccc2F)cc1 [Crystal form B]
99.69
CONC(=O)Nc1ccc(-n2nc3c(c2CN(C)C)c(=O)n(-c2ccc(OC)nn2)c(=O)n3Cc2c(F)cccc2F)cc1 [Crystal form I]
99.36

# purity as detected by HPLC, 60° C. of CONC(=O)Nc1ccc(-n2nc3c(c2CN(C)C)c(=O)n(-c2ccc(OC)nn2)c(=O)n3Cc2c(F)cccc2F)cc1 [Crystal form D] = 99.67

# purity as detected by HPLC, 60° C. of CONC(=O)Nc1ccc(-n2nc3c(c2CN(C)C)c(=O)n(-c2ccc(OC)nn2)c(=O)n3Cc2c(F)cccc2F)cc1 [Crystal form C] = 99.75

###

assay: Stability test of crystal forms spread flat in the air under lighting, heating and high humidity (HPLC purity, XRPD); assay type: physicochemical; settings: heating 40° C., spread flat in the air, Day 0
observed_property: purity as detected by HPLC, 40° C. (%)
Record the value in %, omitting the unit from your answer.

Sample answers from the record:
CONC(=O)Nc1ccc(-n2nc3c(c2CN(C)C)c(=O)n(-c2ccc(OC)nn2)c(=O)n3Cc2c(F)cccc2F)cc1 [Crystal form I]
99.36
CONC(=O)Nc1ccc(-n2nc3c(c2CN(C)C)c(=O)n(-c2ccc(OC)nn2)c(=O)n3Cc2c(F)cccc2F)cc1 [Crystal form D]
99.67
CONC(=O)Nc1ccc(-n2nc3c(c2CN(C)C)c(=O)n(-c2ccc(OC)nn2)c(=O)n3Cc2c(F)cccc2F)cc1 [Crystal form C]
99.75
CONC(=O)Nc1ccc(-n2nc3c(c2CN(C)C)c(=O)n(-c2ccc(OC)nn2)c(=O)n3Cc2c(F)cccc2F)cc1 [Crystal form B]
99.69

Okay, now this compound:
# purity as detected by HPLC, 40° C. of CONC(=O)Nc1ccc(-n2nc3c(c2CN(C)C)c(=O)n(-c2ccc(OC)nn2)c(=O)n3Cc2c(F)cccc2F)cc1 [Crystal form A] = 97.86

###

Listed next: entries and their corresponding purity as detected by HPLC, 40° C..
assay: Stability test of crystal forms spread flat in the air under lighting, heating and high humidity (HPLC purity, XRPD); assay type: physicochemical; conditions: heating 40° C., spread flat in the air, Day 10
Record the value in %, omitting the unit from your answer.

Sample answers from the record:
CONC(=O)Nc1ccc(-n2nc3c(c2CN(C)C)c(=O)n(-c2ccc(OC)nn2)c(=O)n3Cc2c(F)cccc2F)cc1 [Crystal form A]
97.52
CONC(=O)Nc1ccc(-n2nc3c(c2CN(C)C)c(=O)n(-c2ccc(OC)nn2)c(=O)n3Cc2c(F)cccc2F)cc1 [Crystal form B]
99.03
CONC(=O)Nc1ccc(-n2nc3c(c2CN(C)C)c(=O)n(-c2ccc(OC)nn2)c(=O)n3Cc2c(F)cccc2F)cc1 [Crystal form C]
99.35
CONC(=O)Nc1ccc(-n2nc3c(c2CN(C)C)c(=O)n(-c2ccc(OC)nn2)c(=O)n3Cc2c(F)cccc2F)cc1 [Crystal form D]
99.31

Okay, now this compound:
# purity as detected by HPLC, 40° C. of CONC(=O)Nc1ccc(-n2nc3c(c2CN(C)C)c(=O)n(-c2ccc(OC)nn2)c(=O)n3Cc2c(F)cccc2F)cc1 [Crystal form I] = 99.41
